# Tested on: OVCAR-5
# Protocol Summary: NCI tumour cell line growth inhibition, 48 h
Calls of active or inactive are those of the source. Rule as the data show it: active = GI50 up to about 1.1 µM and inactive = higher.
Observation Type: GI50

Form field: GI50 recorded for CC(C)(C)N1NC1C1NN1C(C)(C)C (stereo not given) with OVCAR-5 (enter value)
> 100 µM (inactive)

Form field: GI50 recorded for CC12CC(c3ccccc3O1)C(C(=O)Nc1cccc(F)c1)C(=O)N2 (stereo not given) with OVCAR-5 (enter value)
> 100 µM (inactive)

Form field: GI50 recorded for CC(C)C(N)=O [ISOBUTYRAMIDE] with OVCAR-5 (enter value)
> 5000 µM (inactive)

Form field: GI50 recorded for `CN(C)c1ccc(C(=C2C=CC(=[N+](C)C)C=C2)c2c(O)c(S(=O)(=O)[O-])cc3cc(S(=O)(=O)O)ccc23)cc1` with OVCAR-5 (enter value)
> 100 µM (inactive)

Form field: GI50 recorded for `COc1ccc(C2=NN(c3ccccc3)C[N+](c3ccc(OC)cc3)=N2)cc1` with OVCAR-5 (enter value)
25 µM (inactive)

Where these numbers come from: ChEMBL document CHEMBL1201862
